tested on: pAKT in T47D (PI3Kα H1047R mutant) cells; assay: Inhibition of pAKT (alphaLISA Surefire Ultra AKT 1/2/3 pS473) in T47D cells; assay type: cell-based; details: Homo sapiens; T47D (PI3Kα H1047R mutant) cells, 24 hr compound incubation, alphaLISA pS473; read-out: T47D (H1047R) pAKT 24 hr (IC50)
Overview of recorded pIC50 for various compounds
# pIC50 = -log10(concentration in molar units)

Compound: Cc1cc([C@@H](C)Nc2ccc(Cl)nc2C(=O)O)c2nc(N3CC4C(F)C4C3)c(C#N)nc2c1 (some centres unmarked) [Example 215]
Target or system: pAKT in T47D (PI3Kα H1047R mutant) cells
Reported result: 8.80

Compound: COC[C@H]1CN(c2nc3c([C@@H](C)Nc4ccc(Cl)nc4C(=O)O)cc(C)cc3nc2C#N)CC1(F)F (single isomer, unassigned) [Example 211B]
Target or system: pAKT in T47D (PI3Kα H1047R mutant) cells
Reported result: 8.59

Compound: Cc1cc([C@@H](C)Nc2ccc(Cl)nc2C(=O)O)c2nc(N3CCOCC3)c(C#N)nc2c1 [Example 58]
Target or system: pAKT in T47D (PI3Kα H1047R mutant) cells
Reported result: 8.74

Compound: COC(=O)c1nc(Cl)ccc1N[C@H](C)c1cc(C)cc2nc(C#N)c(N3CC[C@](C)(F)C3)nc12 (single isomer, unassigned) [Example 181]
Target or system: pAKT in T47D (PI3Kα H1047R mutant) cells
Reported result: 8.77

If you can, please state the reported pIC50 value of Cc1cc([C@@H](C)Nc2ccc(Cl)nc2C(=O)O)c2nc(N3C[C@@H]4COC[C@H]4C3)c(C#N)nc2c1 (single isomer, unassigned) [Example 229B] . 8.92

If you can, please state the reported pIC50 value of Cc1cc([C@@H](C)Nc2ccc(Cl)nc2C(=O)O)c2nc(N3CCO[C@@H](C)C3)c(C#N)nc2c1 [Example 260] . 8.72
